EC50 values by entry
# assayed-target: full-length beta-catenin (Axin site) (Homo sapiens, UniProt P35222)
# Construct: 15 nM full-length beta-catenin, 20 nM FITC labeled peptide in buffer
# Sequence (P35222 1-781): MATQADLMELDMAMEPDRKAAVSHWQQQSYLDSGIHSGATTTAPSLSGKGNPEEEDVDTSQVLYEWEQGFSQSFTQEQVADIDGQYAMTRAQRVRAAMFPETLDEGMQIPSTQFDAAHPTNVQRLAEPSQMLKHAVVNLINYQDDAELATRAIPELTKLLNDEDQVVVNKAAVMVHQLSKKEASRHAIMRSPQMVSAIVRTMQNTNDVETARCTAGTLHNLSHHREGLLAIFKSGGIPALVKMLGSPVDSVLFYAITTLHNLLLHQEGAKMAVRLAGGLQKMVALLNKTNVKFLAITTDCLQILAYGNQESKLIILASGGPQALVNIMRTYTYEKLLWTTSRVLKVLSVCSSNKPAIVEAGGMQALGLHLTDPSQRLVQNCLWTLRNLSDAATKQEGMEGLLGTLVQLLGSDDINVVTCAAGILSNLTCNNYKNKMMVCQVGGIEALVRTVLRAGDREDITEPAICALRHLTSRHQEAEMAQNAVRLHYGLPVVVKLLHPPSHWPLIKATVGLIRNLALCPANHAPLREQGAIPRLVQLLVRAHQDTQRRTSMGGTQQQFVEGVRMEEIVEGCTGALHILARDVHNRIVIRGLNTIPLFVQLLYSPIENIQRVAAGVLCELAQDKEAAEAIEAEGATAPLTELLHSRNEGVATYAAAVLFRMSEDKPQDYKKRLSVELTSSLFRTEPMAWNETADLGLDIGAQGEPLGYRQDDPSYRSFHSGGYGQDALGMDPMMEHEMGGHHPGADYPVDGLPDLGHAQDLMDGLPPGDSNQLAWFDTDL
# test-method-notes: Competition fluorescence polarization assay (Axin site probe)
# Format: binding
# measurement-parameters: competition with FITC labeled Axin-site probe, 15 nM full-length beta-catenin; read-out: FP EC50
parameter-measured: EC50 (nM)

INSERT INTO measurements (compound, assayed_target, qualifier_sign, value) VALUES
  ('CC[C@H](C)[C@@H]1NC(=O)C2(NC(=O)[C@H](CCC(N)=O)NC(=O)[C@@H]3CCCN3C(C)=O)CN(C2)C(=O)OCC=CCCC[C@](C)(C(=O)N[C@@H](Cc2c[nH]cn2)C(=O)N[C@H](C(=O)N[C@@H](CCCNC(=N)N)C(=O)N[C@@H](CCCNC(=N)N)C(=O)N[C@H](C(=O)N[C@@H](Cc2c[nH]c3ccccc23)C(=O)N[C@@H](CCCNC(=N)N)C(N)=O)C(C)C)C(C)C)NC(=O)[C@H](CC(=O)O)NC(=O)[C@H](CC(C)C)NC1=O (single isomer, unassigned) [FP-0723c, Ac-P-Q-Az-I-L-D-R5-H-V-R-R-V-W-R-NH2]', 'full-length beta-catenin (Axin site) (Homo sapiens, UniProt P35222)', '=', 1400),
  ('CC[C@H](C)[C@@H]1NC(=O)[C@@](C)(NC(=O)[C@H](CCC(N)=O)NC(=O)[C@@H]2CCCN2C(C)=O)CCCC=CCOC(=O)N2CC(C(=O)N[C@@H](Cc3c[nH]cn3)C(=O)N[C@H](C(=O)N[C@@H](CCCNC(=N)N)C(=O)N[C@@H](CCCNC(=N)N)C(=O)N[C@H](C(=O)N[C@@H](Cc3c[nH]c4ccccc34)C(=O)N[C@@H](CCCNC(=N)N)C(N)=O)C(C)C)C(C)C)(C2)NC(=O)[C@H](CC(=O)O)NC(=O)[C@H](CC(C)C)NC1=O (single isomer, unassigned) [FP-0734c, Ac-P-Q-S5-I-L-D-Az-H-V-R-R-V-W-R-NH2]', 'full-length beta-catenin (Axin site) (Homo sapiens, UniProt P35222)', '>', 5000);
